test system: HepG2; test: GSK_TCMDC: Percent inhibition of human HepG2 cell line. Test compounds present at 10uM.; assay type: functional
For each of the molecules below, state its Inhibition.
Numbers only, in %.

Quick one: give me Inhibition for each item below, same order please.
1. CCOc1cc(C(=O)NC2CCN(Cc3ccccc3)C2)ccc1-c1nc2cc(Cl)ccc2[nH]1 (stereo not given)
2. O=C(/C=C/c1ccc(Cl)cc1Cl)NCCCCCN1CCC(c2c[nH]c3ccccc23)CC1
3. CCc1c(C)nc2nc(Cc3cccc(F)c3)nn2c1N1CCN(c2ccccn2)CC1
4. Cc1cc(Nc2ccc(O)cc2)nc2cccc(O)c12
5. COc1ccc2nccc([C@@H](O)CN3CCC(NCc4cc5cccnc5[nH]4)CC3)c2n1.O=C(O)C(=O)O

[7, 95, 0, 22, 7]

----------
For each of the molecules below, state its Inhibition.
test system: Plasmodium falciparum; assay: GSK_TCMDC: Inhibition of Plasmodium falciparum 3D7 in whole red blood cells, using parasite LDH activity as an index of growth. Test compounds present at 2uM; assay type: functional
Enter the number, and then the unit.

Known results for molecules:
[
  {
    "compound.structure.string": "Br.CC1(C)NC(N)=NC(=N)N1OCCCCCOc1ccccc1",
    "meas.value": "95%"
  },
  {
    "compound.structure.string": "CCn1cnc2c(Nc3cccc([N+](=O)[O-])c3)nc(N3CCC(N4CCCCC4)CC3)nc21",
    "meas.value": "98%"
  },
  {
    "compound.structure.string": "COc1cc(CNC[C@@H](O)[C@H](Cc2ccccc2)NC(=O)c2cc(OC(C)C)cc(N3CCCS3(=O)=O)c2)cc(OC)c1.Cl",
    "meas.value": "97%"
  }
]

Reported Inhibition for COc1cccc(CNC(=O)[C@@H]2CN(C(=O)c3ccccc3)CCN2)c1.O=C(O)C(F)(F)F was 92%

----------
test system: HepG2; experiment: GSK_TCMDC: Percent inhibition of human HepG2 cell line. Test compounds present at 10uM.; type: functional
measurement.label: Inhibition (%)
One number for each entry, in %.

Known results for compounds:
[
  {
    "compound": "O=C(/C=C/c1ccc(Cl)c(Cl)c1)NCCCCCN1CCC(NC(=O)Nc2ccc(Cl)cc2F)CC1",
    "experimental.target": "HepG2",
    "uom": "%",
    "meas.value": 100
  },
  {
    "compound": "CCOc1ccc2c(=NN=Cc3c4ccccc4cc4ccccc34)cc(C)[nH]c2c1",
    "experimental.target": "HepG2",
    "uom": "%",
    "meas.value": 0
  }
]

Let us examine a further case.
Measured Inhibition (HepG2), entry Cc1ccc2[nH]c3c(c2c1)CC(C(=O)NCCC(C)C)NC31CCN(Cc2ccccc2)CC1 (stereo not drawn) : 15

----------
test system: Plasmodium falciparum; assay: GSK_TCMDC: Inhibition of Plasmodium falciparum Dd2 in whole red blood cells, using parasite LDH activity as an index of growth. Test compounds present at 2uM; type: functional
Strictly below 80% in Inhibition: Satisfied. Otherwise: Not satisfied.

Record excerpt, results attached:
[
  {
    "compound": "COc1ccc2c(=NN=Cc3ccccc3)cc(C)[nH]c2c1",
    "classification": "Satisfied"
  },
  {
    "compound": "O=C(Cn1c(=O)oc2ccccc21)N1CCC(n2c(=O)n(CCCN3CCOCC3)c3ccccc32)CC1",
    "classification": "Not satisfied"
  },
  {
    "compound": "COc1cc(CNCCCCCCNCc2cc(OC)c(OC)c3ccccc23)c2ccccc2c1OC.CS(=O)(=O)O",
    "classification": "Not satisfied"
  },
  {
    "compound": "O=C(N[C@@H](Cc1ccccc1)[C@H](O)CNCCC(F)(F)F)c1cccc(OCC2CC2)c1",
    "classification": "Not satisfied"
  },
  {
    "compound": "Cc1cc(-c2cc(Cl)ccc2Cl)no1",
    "classification": "Not satisfied"
  },
  {
    "compound": "Fc1cccc(C=NN=c2cc[nH]c3ccc(C(F)(F)F)cc23)c1",
    "classification": "Not satisfied"
  },
  {
    "compound": "Cc1cccc2nc(-c3cccc(-c4ccc(NC(=O)COc5ccccc5C(N)=O)cc4)c3)[nH]c12",
    "classification": "Satisfied"
  },
  {
    "compound": "Cc1cc(N(C)C)nc(Nc2ccc(NC(=O)c3c(F)cccc3F)cc2)n1",
    "classification": "Satisfied"
  }
]

Please state whether Inhibition is below 80% for COc1ccc2cc(C=NNc3nc4ccccc4[nH]3)c(Cl)nc2c1
Not satisfied

Please state whether Inhibition is below 80% for Cl.N#Cc1ccc(NC(=O)Nc2ccc3c(c2)CCN(C2CCC2)CC3)cc1
Satisfied

Please state whether Inhibition is below 80% for Cc1cc(OCc2ccncc2)cc2c1C(=O)CC(C)(C)O2
Satisfied

Please state whether Inhibition is below 80% for CC1N=C(N)N=C(N)N1OCc1ccccc1.Cl (configuration not stated)
Satisfied

Please state whether Inhibition is below 80% for COc1cc(Cc2cnc(N)nc2N)cc(OCCCCCCN)c1OC.Cl
Satisfied

Please state whether Inhibition is below 80% for O=C(Nc1ccc(Cl)cc1)Nc1ccc(-c2ccc(-c3nc4ccccc4[nH]3)cc2)cc1
Not satisfied

Please state whether Inhibition is below 80% for Cc1cccc2nc(-c3cccc(-c4ccc(NC(=O)C(C)CN5CCOCC5)cc4)c3)[nH]c12 (configuration not stated)
Satisfied
